Tested on: Escherichia coli
ASSAY DETAILS: Binding affinity to Escherichia coli ribosomal A-site assessed as inhibition of GFP biosynthesis at 500 uM by transcription/translation assay relative to chloramphenicol
Activity calls are given as the source filed them. The rule behind the calls is not given here.
QUANTITY: inhibition

These solved cases illustrate the format of a correct answer.
Nc1cc(NC2OC(CO)C(O)C(O)C2O)ccc1[N+](=O)[O-] (stereo unspecified) ... 61%
CC(O)CNCCNCc1ccccc1 (stereo unspecified) ... 36%
COc1cc(CNCCc2c[nH]c3ccccc23)cc(Cl)c1OCC(N)=O ... 82%
OCC(O)C(O)C(O)C(O)C1NNC(=S)NN1 (stereo unspecified) ... inactive
CC(=O)N1[C@H](CO)CS[C@@H]1[C@H](O)[C@@H](O)[C@@H](O)[C@H](O)CO ... inactive
NC(=O)c1ncn([C@H]2C[C@@H](CO)[C@H](O)[C@@H]2O)n1 ... inactive
COc1cccc(CNCCc2c[nH]c3ccccc23)c1OCc1ccccc1F ... 71%
CNCCCNCc1ccc(OCC(N)=O)c(OC)c1 ... inactive

Bench note: what inhibition did Nc1[nH]c(C2OC(CO)C(O)C2O)nc1C(=O)NCc1ccccc1 (stereo unspecified) show?
22%

Bench note: what inhibition did O=c1[nH]c(=O)n2c(c1[N+](=O)[O-])NC(C(O)C(O)C(O)CO)C2O (stereo unspecified) show?
13%

Bench note: what inhibition did CC(O)CNCCNCc1cccc2ccccc12 (stereo unspecified) show?
64%
